molecular target: Platelet-activating factor acetylhydrolase (Homo sapiens); assay: pPAFAH enzyme inhibitors, primary screen, biochemical, fluorescence polarization, human (AID 463082); conditions: recombinant pPAFAH, FP-rhodamine probe fluorescence polarization; at 3.39 µM;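 further: inhibitors block binding of the rhodamine activity-based probe so polarization drops; 0% = enzyme with DMSO and 100% = wells lacking pPAFAH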
Hit rate of the full screen: of about 330,000 compounds, about 4,900 (1.5%) were called active.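 How the source made its calls: active means inhibition above the mean inhibition across the screen plus 3 SD (cut at about 25% in these data); inactive means the rest.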 The entries come from a sample that favours actives as a whole.
Respond only with the outcome that fits, drawn from T (active), F (inactive)

The examples below pair each entry with its known result.
{"compound": "CCc1nnc(SCc2cccc(F)c2)nc1CC", "targetSystem": "Platelet-activating factor acetylhydrolase (Homo sapiens)", "assignedLabel": "F"}
{"compound": "Clc1ccccc1CSc1nnc(-c2ccco2)c(-c2ccco2)n1", "targetSystem": "Platelet-activating factor acetylhydrolase (Homo sapiens)", "assignedLabel": "T"}
{"compound": "O=C(c1n[nH]c2c1CCC2)N1CCCC(Nc2cccc(F)c2)C1 (stereo not given)", "targetSystem": "Platelet-activating factor acetylhydrolase (Homo sapiens)", "assignedLabel": "F"}
{"compound": "Cn1c(=O)c(C(=O)Nc2ncccn2)c(O)c2ccccc21", "targetSystem": "Platelet-activating factor acetylhydrolase (Homo sapiens)", "assignedLabel": "F"}
{"compound": "CCN(CC)S(=O)(=O)c1ccc(N2CCOCC2)c(NC(=O)C(C)Oc2ccc(F)cc2)c1 (stereo not given)", "targetSystem": "Platelet-activating factor acetylhydrolase (Homo sapiens)", "assignedLabel": "F"}
{"compound": "Cc1ccccc1-n1c(SCC(=O)Nc2cccc3ccccc23)nc(O)cc1=O", "targetSystem": "Platelet-activating factor acetylhydrolase (Homo sapiens)", "assignedLabel": "T"}
{"compound": "CCn1cc(C(=O)NCCC(=O)NCCO)c(=O)c2cc3c(cc21)OCO3", "targetSystem": "Platelet-activating factor acetylhydrolase (Homo sapiens)", "assignedLabel": "F"}
{"compound": "O=C(CSc1ncnc2sccc12)NC1CCS(=O)(=O)C1 (stereo not given)", "targetSystem": "Platelet-activating factor acetylhydrolase (Homo sapiens)", "assignedLabel": "F"}
{"compound": "CC(CC(=O)Nc1ccc(F)cc1F)S(=O)(=O)c1ccc2c(c1)NC(=O)CO2 (stereo not given)", "targetSystem": "Platelet-activating factor acetylhydrolase (Homo sapiens)", "assignedLabel": "F"}
{"compound": "C/C(=N\\NC(=O)COc1ccc(C)cc1[N+](=O)[O-])c1ccc2c(c1)OCCO2", "targetSystem": "Platelet-activating factor acetylhydrolase (Homo sapiens)", "assignedLabel": "F"}

query: Dear all, I need the recorded test outcome for COc1ccccc1NC(=O)Nc1nnc(Cc2ccc(F)cc2)s1 , thank you.
result: F

query: Dear all, I need the recorded test outcome for Cc1nnc(SCC(=O)N(C(C)C)C(C)C)nc1C , thank you.
result: F

query: Dear all, I need the recorded test outcome for O=C(Nc1nnc(SCc2ccccc2Cl)s1)c1cccc([N+](=O)[O-])c1 , thank you.
result: F

query: Dear all, I need the recorded test outcome for Cc1cc(C)c(-c2c(O)c3ccccc3n(C)c2=O)c(C)c1 , thank you.
result: F

query: Dear all, I need the recorded test outcome for O=C(CC1N=C2c3ccccc3N=C(SCc3ccccc3Cl)N2C1=O)NCc1ccco1 (stereo not given) , thank you.
result: F

====

target: Platelet-activating factor acetylhydrolase (Homo sapiens); assay: pPAFAH enzyme inhibitors, primary screen, biochemical, fluorescence polarization, human (AID 463082); conditions: recombinant pPAFAH, FP-rhodamine probe fluorescence polarization; at 3.39 µM; stronger effect = higher value;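 further: inhibitors block binding of the rhodamine activity-based probe so polarization drops; 0% = enzyme with DMSO and 100% = wells lacking pPAFAH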
The whole screen tested about 330,000 compounds, of which about 4,900 (1.5%) were called active. Only a selection was taken, and actives are over-represented in it overall.
Readings of inhibition for the listed compounds
Your answer should be a plain number; it is taken to be in %.

Worked cases, answers included:
{"compound": "CCCN1CC=C2C(C#N)=C(N)C(C#N)(C#N)C(c3cc(OC)ccc3OC)C2C1 (stereo not given)", "testResult": 0.59}
{"compound": "O=c1oc2ccc(C#CC3(O)CCCCC3)cc2cc1-n1cc(-c2ccsc2)nn1", "testResult": -0.61}
{"compound": "S=C(NCC1CCCO1)N1CCN(c2ccc(Cl)c(Cl)c2)CC1 (stereo not given)", "testResult": 14.9}
{"compound": "CCOC(=O)C1(Cc2ccc(Cl)cc2)CCN(C(=O)C2=NNC(=O)CC2)CC1", "testResult": 1.54}
{"compound": "COc1ccccc1C(=O)Nc1ccc(Nc2ccccc2)cc1", "testResult": 2.35}

query: Consider the compound CC/C(=N\NC(=O)c1ccccc1Cl)c1ccc(Br)s1 . State its measured inhibition.
result: 2.32

query: Consider the compound CCN1CC=C2C(C#N)=C(N)C(C#N)(C#N)[C@H](c3ccoc3)[C@H]2C1 . State its measured inhibition.
result: 25.2

query: Consider the compound CN(C(=O)CC1C(=O)NCCN1Cc1ccc(F)cc1Cl)C1CCCCC1 (stereo not given) . State its measured inhibition.
result: -3

query: Consider the compound Cc1ccnc2nc(C(=O)Nc3nnc(-c4ccccc4)o3)nn12 . State its measured inhibition.
result: 8.88

query: Consider the compound CC(C)C(O)C1CCN(Cc2nc(Cc3ccccc3Cl)no2)CC1 (stereo not given) . State its measured inhibition.
result: 1.22

query: Consider the compound Cc1cc(NC(=O)CSC2=NS(=O)(=O)c3cc(Cl)ccc3N2)no1 . State its measured inhibition.
result: -4.37

query: Consider the compound Oc1c(Br)cc(/C=N/NC(=S)NCC2CCCO2)cc1Br (stereo not given) . State its measured inhibition.
result: 35.5

query: Consider the compound O=C(CC1C(=O)NCCN1CC(c1ccccc1)c1ccccc1)NCCc1cn[nH]c1 (stereo not given) . State its measured inhibition.
result: 7.44

query: Consider the compound COc1ccc(-n2cnnc2SCC(=O)Nc2cccc(S(N)(=O)=O)c2)cc1 . State its measured inhibition.
result: 3.84

query: Consider the compound Cc1cc(O)c(Sc2ccccc2)c(=O)o1 . State its measured inhibition.
result: 3.25

====

Readings of inhibition for the listed compounds
biological target: Platelet-activating factor acetylhydrolase (Homo sapiens) (UniProt Q13093); experiment: pPAFAH enzyme inhibitors, primary screen, biochemical, fluorescence polarization, human (AID 463082); settings: recombinant pPAFAH, FP-rhodamine probe fluorescence polarization; at 3.39 µM; stronger effect = higher value;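 further: inhibitors block binding of the rhodamine activity-based probe so polarization drops; 0% = enzyme with DMSO and 100% = wells lacking pPAFAH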
Sequence (Q13093 whole entry, looked up): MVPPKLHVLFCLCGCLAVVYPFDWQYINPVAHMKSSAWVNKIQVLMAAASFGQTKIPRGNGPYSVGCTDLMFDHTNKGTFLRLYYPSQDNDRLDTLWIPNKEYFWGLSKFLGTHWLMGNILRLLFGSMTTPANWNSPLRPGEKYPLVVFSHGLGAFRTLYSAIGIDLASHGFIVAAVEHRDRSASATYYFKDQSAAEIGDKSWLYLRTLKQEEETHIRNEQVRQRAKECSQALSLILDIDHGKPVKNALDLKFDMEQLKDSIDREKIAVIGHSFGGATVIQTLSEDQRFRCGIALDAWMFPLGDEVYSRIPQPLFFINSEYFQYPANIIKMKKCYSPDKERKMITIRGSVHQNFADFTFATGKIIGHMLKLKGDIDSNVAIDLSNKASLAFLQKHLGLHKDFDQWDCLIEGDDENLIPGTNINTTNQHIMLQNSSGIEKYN
About 4,900 (1.5%) of roughly 330,000 compounds were called active. The entries come from a sample that favours actives as a whole.
Your answer should be a plain number; it is taken to be in %.

{"compound": "CC(C)NC(=O)C(=O)NCCN1CCN(S(=O)(=O)c2ccc(Cl)cc2)CC1", "unitDescriptor": "%", "testResult": 2.1}
{"compound": "CCCCn1c(N)c(N(CC(C)C)C(=O)c2cnc(C)cn2)c(=O)[nH]c1=O", "unitDescriptor": "%", "testResult": 7.57}
{"compound": "CCCCNS(=O)(=O)c1ccc2nc(SCC(=O)Nc3cc(C)cc(C)c3)[nH]c2c1", "unitDescriptor": "%", "testResult": -1.99}
{"compound": "CCN(CC)C(=O)[C@H]1CC(CC(=O)NCc2ccco2)C(=O)N2CCc3c([nH]c4ccccc34)[C@]12C (stereo partly drawn)", "unitDescriptor": "%", "testResult": -0.35}

query: Give reported inhibition for Nn1c(SCC(=O)NC2CCCc3ccccc32)nnc1C1CC1 (stereo not drawn) (Platelet-activating factor acetylhydrolase (Homo sapiens) (UniProt Q13093))
result: -1.35

query: Give reported inhibition for Cn1c(CCC(=O)OCC(=O)NCc2ccccc2Cl)nc(=O)c2ccccc21 (Platelet-activating factor acetylhydrolase (Homo sapiens) (UniProt Q13093))
result: 1.56

query: Give reported inhibition for CCc1ccc(-c2nn(-c3ccccc3)cc2CSC(=N)N)cc1 (Platelet-activating factor acetylhydrolase (Homo sapiens) (UniProt Q13093))
result: 3.9

query: Give reported inhibition for O=S(=O)(Nc1ncnc2sccc12)c1cccc(F)c1 (Platelet-activating factor acetylhydrolase (Homo sapiens) (UniProt Q13093))
result: 12.2

query: Give reported inhibition for CCC(=O)c1ccc(OCC(=O)Nc2ccc(N3CCCCC3)cc2)cc1 (Platelet-activating factor acetylhydrolase (Homo sapiens) (UniProt Q13093))
result: 3.34

query: Give reported inhibition for Fc1ccccc1/C=C1\CCCC2=C1Nc1ncnn1C2c1ccccc1F (stereo not drawn) (Platelet-activating factor acetylhydrolase (Homo sapiens) (UniProt Q13093))
result: 14

query: Give reported inhibition for CC1CCCCC1NC(=O)COC(=O)Cc1ccc(Br)cc1 (stereo not drawn) (Platelet-activating factor acetylhydrolase (Homo sapiens) (UniProt Q13093))
result: 23.6

====

target: Platelet-activating factor acetylhydrolase (Homo sapiens) (UniProt Q13093); test: pPAFAH enzyme inhibitors, primary screen, biochemical, fluorescence polarization, human (AID 463082); settings: recombinant pPAFAH, FP-rhodamine probe fluorescence polarization; at 3.39 µM; stronger effect = higher value;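 further: inhibitors block binding of the rhodamine activity-based probe so polarization drops; 0% = enzyme with DMSO and 100% = wells lacking pPAFAH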
About 4,900 (1.5%) of roughly 330,000 compounds were called active. The full list was thinned out, with actives kept by preference.
Readings of inhibition for the listed compounds
Your answer should be a plain number; it is taken to be in %.

Worked cases, answers included:
{"compound": "O=C(Nc1ccc(OC(F)(F)F)cc1)c1ccc2c(c1)no[n+]2[O-]", "targetSystem": "Platelet-activating factor acetylhydrolase (Homo sapiens) (UniProt Q13093)", "unitDescriptor": "%", "inhibition": 25.4}
{"compound": "CC(=O)Nc1ccc(OCCC[n+]2cccc(C(=O)[O-])c2)cc1", "targetSystem": "Platelet-activating factor acetylhydrolase (Homo sapiens) (UniProt Q13093)", "unitDescriptor": "%", "inhibition": -0.37}
{"compound": "O=C(CNC(=O)c1ccccc1Br)NCCSc1ccc(Br)cc1", "targetSystem": "Platelet-activating factor acetylhydrolase (Homo sapiens) (UniProt Q13093)", "unitDescriptor": "%", "inhibition": 6.87}

query: Consider the compound CSc1ccc(S(=O)(=O)Nc2cccc(F)c2)cc1 . State its measured inhibition.
result: 32.8

query: Consider the compound CC(=O)Nc1cccc(OCC(=O)/C=C2\N(C)c3ccccc3C2(C)C)c1 . State its measured inhibition.
result: 1.61

query: Consider the compound COc1ccc(N(CC(=O)Nc2cc(OC)cc(OC)c2)S(=O)(=O)c2c(C)n[nH]c2C)cc1 . State its measured inhibition.
result: 1.91

query: Consider the compound O=[N+]([O-])c1ccc(N2CCN(S(=O)(=O)c3ccccc3)CC2)cc1N1CCc2ccccc2C1 . State its measured inhibition.
result: -4.15

query: Consider the compound OCCCC1CCCCN1Cc1nc(Cc2ccccc2Cl)no1 (stereo not given) . State its measured inhibition.
result: -2.08
